# Assayed target: P. falciparum apicoplast DNA polymerase (Pf-apPOL) (Plasmodium falciparum, UniProt Q8ILY1)
# Sequence (Q8ILY1 entry or part of it): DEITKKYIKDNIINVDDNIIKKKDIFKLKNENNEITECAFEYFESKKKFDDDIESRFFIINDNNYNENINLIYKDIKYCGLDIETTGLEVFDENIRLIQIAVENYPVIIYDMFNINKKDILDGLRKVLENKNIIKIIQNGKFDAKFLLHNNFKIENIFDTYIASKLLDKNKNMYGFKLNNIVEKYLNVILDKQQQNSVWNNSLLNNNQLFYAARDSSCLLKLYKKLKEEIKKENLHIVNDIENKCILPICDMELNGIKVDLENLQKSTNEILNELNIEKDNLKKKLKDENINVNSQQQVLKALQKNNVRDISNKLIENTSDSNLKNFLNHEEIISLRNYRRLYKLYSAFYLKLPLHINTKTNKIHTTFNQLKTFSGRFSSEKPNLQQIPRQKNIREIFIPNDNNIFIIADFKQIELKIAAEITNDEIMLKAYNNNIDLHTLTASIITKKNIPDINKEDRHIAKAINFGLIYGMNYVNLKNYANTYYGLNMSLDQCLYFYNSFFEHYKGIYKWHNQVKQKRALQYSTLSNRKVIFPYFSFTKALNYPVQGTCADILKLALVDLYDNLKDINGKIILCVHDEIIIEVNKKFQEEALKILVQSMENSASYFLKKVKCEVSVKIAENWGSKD
# Run description: Fluorescence-based high-throughput DNA polymerase assay (molecular beacon), primary screen and dose-response
# Format: biochemical
# Measurement conditions: DRC-1; read at 10'; concentration 20
Quantity measured: % inhibition Apo pol 10' 20 (%)
Kindly answer with a numeric value in %, unit omitted.

## Task Read the entry Cn1nc(-c2nc(-c3ccccc3)no2)c2c1CCN(C(=O)Cc1cccs1)C2 and write its reported % inhibition Apo pol 10' 20.
## Result 48

## Task Provide only the value of recorded % inhibition Apo pol 10' 20 for Nc1cc(Oc2ccc(O)c(N)c2)ccc1O
## Result 70.5604

## Task Please give the documented % inhibition Apo pol 10' 20 of CC(=O)OCC1=C(C(=O)[O-])N2C(=O)[C@@H](NC(=O)Cc3cccs3)[C@H]2SC1.[Na+]
## Result 52.9189

## Task Supply recorded % inhibition Apo pol 10' 20 for O=C(CCc1csc(NC(=O)Nc2ccccc2)n1)Nc1nc2ccccc2s1 here.
## Result 76.9078

## Task Indicate its recorded % inhibition Apo pol 10' 20; the compound in question is C#CC(C=CC)OC(=O)c1ccccc1C(=O)O (stereo not drawn)
## Result 51.5021

## Task Give recorded % inhibition Apo pol 10' 20. COc1ccccc1CC(=O)N1CCc2c(nc3cc(-c4ccccc4Cl)[nH]n3c2=O)C1
## Result 65

## Task Output measured % inhibition Apo pol 10' 20 for this item: Cc1nc(C)c2c(n1)N(CC1CCCCC1)C(=O)CC2
## Result 48.9825

## Task Return % inhibition Apo pol 10' 20 for the following compound: COc1ccc(/C=C/c2cc(C(=O)O)c3ccccc3n2)cc1
## Result 65.8277

## Task Check the records and state % inhibition Apo pol 10' 20 for Cn1nc(-c2nnc(-c3ccccc3F)o2)c2c1CCN(C(=O)c1ccccc1Cl)C2
## Result 58

---

# Assayed target: P. falciparum apicoplast DNA polymerase (Pf-apPOL) (Plasmodium falciparum, UniProt Q8ILY1)
# Run description: Fluorescence-based high-throughput DNA polymerase assay (molecular beacon), primary screen and dose-response
# Assay type: biochemical
# Measurement conditions: DRC-2; read at 40'; concentration 20
Outcome: fulfilled for % inhibition Apol 40' 20 of at least 60%; not fulfilled for anything lower.

## Task Check the entry N#Cc1c(O)nc(N2CCCCC2)nc1-c1ccc2c(c1)OCO2 [KU0083146] : does % inhibition Apol 40' 20 equal or exceed 60%?
## Result not fulfilled

## Task Decide: % inhibition Apol 40' 20 of CC(=O)Nc1cc(C(=O)c2cccs2)nn(-c2ccc(Cl)cc2)c1=O [KU0267905] >= 60%?
## Result not fulfilled

## Task Determine whether this molecule has % inhibition Apol 40' 20 no lower than 60%: Nc1cc(Oc2ccc(O)c(N)c2)ccc1O [KU0034728]
## Result fulfilled

## Task Could you please find out whether Cc1cc2[nH]c(C(=O)Nc3ccc(F)cc3)c(CN3CCOCC3)c2s1 [Molecule 60] has % inhibition Apol 40' 20 that meets 60% or exceeds it?
## Result not fulfilled

---

# Assayed target: P. falciparum apicoplast DNA polymerase (Pf-apPOL) (Plasmodium falciparum)
# Run description: Fluorescence-based high-throughput DNA polymerase assay (molecular beacon), primary screen and dose-response
# Assay type: biochemical
# Measurement conditions: DRC-1; 90'; concentration 10
Quantity measured: % inhibition Apol 90' (%)
Number only, in %; omit the unit.

## Task Determine its reported % inhibition Apol 90': O=C(Nc1c2c(nn1-c1ccc(Oc3ccccc3)cc1)CSC2)c1ccco1
## Result 30.4357

## Task State, in one line, measured % inhibition Apol 90' of Cc1cccc(CC(=O)N2CCc3c(nc4cc(-c5ccccc5)[nH]n4c3=O)C2)c1
## Result 50

## Task For the molecule CN(C)C=CC(=O)c1ccccn1 , give its reported % inhibition Apol 90'.
## Result 20.4436

## Task Identify measured % inhibition Apol 90' corresponding to CCOc1ccc(/C=C2\N=C(c3cc([N+](=O)[O-])cc([N+](=O)[O-])c3)OC2=O)cc1
## Result 61.0945

## Task Tell us which % inhibition Apol 90' value is on record for Cc1cccc(-c2nnc3ccc(NS(=O)(=O)c4ccc(C)c(C)c4)nn23)c1
## Result 42.202

## Task Report % inhibition Apol 90', nothing else, for this molecule: CCOC(=O)C1=C2c3cc(OC)c(OC)cc3CC(C)(C)N2C(=O)C1=O
## Result 23.2588

---

Give % inhibition apPOL 180' for every item shown.
# Assayed target: P. falciparum apicoplast DNA polymerase (Pf-apPOL) (Plasmodium falciparum)
# Run description: Fluorescence-based high-throughput DNA polymerase assay (molecular beacon), primary screen and dose-response
# Assay type: biochemical
# Measurement conditions: DRC-1; 180'; conc 5
I only need the number, in %, no unit after it.

## Task Write down % inhibition apPOL 180' measured for item CCOc1nc2cccc(C(=O)OC(C)OC(=O)OC3CCCCC3)c2n1Cc1ccc(-c2ccccc2-c2nnn[nH]2)cc1 (stereo not shown) [Molecule 94]
## Result 11.5491

## Task Look up and state reported % inhibition apPOL 180' for O=c1nc(/C=C/c2ccc(Br)cc2)oc2ccccc12 [KU0052629]
## Result -5.094

## Task Write down % inhibition apPOL 180' measured for item Cc1cccc(NC(=O)Cn2ccc3c(=O)[nH]ccc32)c1C [Molecule 11, O=C(Cn1ccc2c1cc[nH]c2=O)Nc1cccc(c1C)C]
## Result 3.486

## Task Specify reported % inhibition apPOL 180' for the compound shown: N#CC(C#N)=C1SCN(c2cccc(Cl)c2)CS1 [Molecule 29, N#CC(=C1SCN(CS1)c1cccc(c1)Cl)C#N]
## Result 13.8215

---

# Assayed target: P. falciparum apicoplast DNA polymerase (Pf-apPOL) (Plasmodium falciparum, UniProt Q8ILY1)
# Run description: Fluorescence-based high-throughput DNA polymerase assay (molecular beacon), primary screen and dose-response;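 for % inhibition apPOL 180': test concentration in µM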
# Type: biochemical
# Measurement conditions: DRC-1; 180'; concentration 5
Quantity measured: % inhibition apPOL 180' (%)
Respond numerically; units are % and should not be typed.

## Task Give P. falciparum apicoplast DNA polymerase (Pf-apPOL) (Plasmodium falciparum, UniProt Q8ILY1) % inhibition apPOL 180' for the following compound: COc1ccc(NC(=O)Cn2ccc3c(=O)[nH]ccc32)cc1Cl [Molecule 10, COc1ccc(cc1Cl)NC(=O)Cn1ccc2c1cc[nH]c2=O]
## Result 12.6648

## Task Please look at O=C(Cn1ccc2c(=O)[nH]ccc21)Nc1cccc(Cl)c1 [Molecule 23, O=C(Cn1ccc2c1cc[nH]c2=O)Nc1cccc(c1)Cl] and tell me its recorded % inhibition apPOL 180' on P. falciparum apicoplast DNA polymerase (Pf-apPOL) (Plasmodium falciparum, UniProt Q8ILY1).
## Result -3.837

## Task GET % inhibition apPOL 180' where system = P. falciparum apicoplast DNA polymerase (Pf-apPOL) (Plasmodium falciparum, UniProt Q8ILY1) and item = COc1ccccc1CCC(=O)N1CCc2c(nc3cc(-c4ccccc4)[nH]n3c2=O)C1
## Result 1.16

## Task Tell me its % inhibition apPOL 180' on P. falciparum apicoplast DNA polymerase (Pf-apPOL) (Plasmodium falciparum, UniProt Q8ILY1): CC1(C)CC(=O)C2=C(C1)OC1=C(C(=O)CC(C)(C)C1)C2c1ccc(O)cc1
## Result 5.25

## Task Print P. falciparum apicoplast DNA polymerase (Pf-apPOL) (Plasmodium falciparum, UniProt Q8ILY1) % inhibition apPOL 180' for COCCN(CCOC)Cc1c(O)ccc2c1OC(=Cc1cc(Br)ccc1OC)C2=O .
## Result 14.5947

## Task Fill in % inhibition apPOL 180' for O=C(Nc1cccc(Cl)c1)Nc1nnc(-c2ccncc2)s1 tested with P. falciparum apicoplast DNA polymerase (Pf-apPOL) (Plasmodium falciparum, UniProt Q8ILY1).
## Result -11.6465

## Task Please respond with reported % inhibition apPOL 180' (system P. falciparum apicoplast DNA polymerase (Pf-apPOL) (Plasmodium falciparum, UniProt Q8ILY1)) for O=C(Cc1cc(=O)[nH]c(SCc2ccccc2)n1)Nc1ccc2c(c1)OCO2 .
## Result -9.027

## Task Look up and report measured % inhibition apPOL 180' (P. falciparum apicoplast DNA polymerase (Pf-apPOL) (Plasmodium falciparum, UniProt Q8ILY1)) for the following compound: Cc1cc(C)c2c(O)nc(SCC(=O)c3ccc(O)c(O)c3)nc2n1
## Result 48.1017

## Task Recall the reported % inhibition apPOL 180' of NS(=O)(=O)c1ccc(NC(=O)c2ccc(N3C(=O)CCC3=O)cc2)cc1 when tested on P. falciparum apicoplast DNA polymerase (Pf-apPOL) (Plasmodium falciparum, UniProt Q8ILY1).
## Result -1.0806

## Task Under P. falciparum apicoplast DNA polymerase (Pf-apPOL) (Plasmodium falciparum, UniProt Q8ILY1), report % inhibition apPOL 180' for O=C(c1c[nH]c2ncccc12)N1CCCCCC1 [Molecule 51, O=C(c1c[nH]c2c1cccn2)N1CCCCCC1]
## Result -4.489

## Task # assay system P. falciparum apicoplast DNA polymerase (Pf-apPOL) (Plasmodium falciparum, UniProt Q8ILY1): give % inhibition apPOL 180' of N#Cc1c(C2CCCCC2)nc(Sc2ccc(C(F)(F)F)cc2[N+](=O)[O-])[nH]c1=O
## Result 10.6134

## Task // output % inhibition apPOL 180'; input O=C(CSc1nnc(-c2ccncc2)[nH]1)c1ccc(O)c(O)c1 ; system P. falciparum apicoplast DNA polymerase (Pf-apPOL) (Plasmodium falciparum, UniProt Q8ILY1)
## Result 56.5831

## Task Write % inhibition apPOL 180' of O=C1N=C(Nc2cccc(Cl)c2Cl)S/C1=C\c1ccco1 [Molecule 3, O=C1N=C(S/C/1=C\c1ccco1)Nc1cccc(c1Cl)Cl] ; system used: P. falciparum apicoplast DNA polymerase (Pf-apPOL) (Plasmodium falciparum, UniProt Q8ILY1)
## Result 24.8255

## Task Look up P. falciparum apicoplast DNA polymerase (Pf-apPOL) (Plasmodium falciparum, UniProt Q8ILY1) data: % inhibition apPOL 180' of O=C(Nc1cccc(C(=O)Nc2ccc(S(=O)(=O)[O-])c3cc(S(=O)(=O)[O-])cc(S(=O)(=O)[O-])c23)c1)Nc1cccc(C(=O)Nc2ccc(S(=O)(=O)[O-])c3cc(S(=O)(=O)[O-])cc(S(=O)(=O)[O-])c23)c1.[Na+].[Na+].[Na+].[Na+].[Na+].[Na+] , then report it.
## Result 1.181

## Task Would you please give the reported % inhibition apPOL 180' of COc1ccc(C(=O)Nc2cccc(-c3nc4ncccc4o3)c2)cc1[N+](=O)[O-] with P. falciparum apicoplast DNA polymerase (Pf-apPOL) (Plasmodium falciparum, UniProt Q8ILY1)?
## Result 2.317

## Task # assay system P. falciparum apicoplast DNA polymerase (Pf-apPOL) (Plasmodium falciparum, UniProt Q8ILY1): give % inhibition apPOL 180' of O=C(Nc1c2c(nn1-c1ccc(Oc3ccccc3)cc1)CSC2)c1ccco1
## Result 5.714

## Task Please tell me the measured % inhibition apPOL 180' for CCCCc1ccc(NC(=O)CSc2nc(O)c(C#N)c(C3CCCCC3)n2)c(C)c1 ; system: P. falciparum apicoplast DNA polymerase (Pf-apPOL) (Plasmodium falciparum, UniProt Q8ILY1).
## Result 7.482
